Source: paper PMC4336329

- subjectOfTest: human ether-à-go-go-related gene (hERG) potassium channel (human, UniProt Q12809)
- Sequence (Q12809 whole entry, looked up): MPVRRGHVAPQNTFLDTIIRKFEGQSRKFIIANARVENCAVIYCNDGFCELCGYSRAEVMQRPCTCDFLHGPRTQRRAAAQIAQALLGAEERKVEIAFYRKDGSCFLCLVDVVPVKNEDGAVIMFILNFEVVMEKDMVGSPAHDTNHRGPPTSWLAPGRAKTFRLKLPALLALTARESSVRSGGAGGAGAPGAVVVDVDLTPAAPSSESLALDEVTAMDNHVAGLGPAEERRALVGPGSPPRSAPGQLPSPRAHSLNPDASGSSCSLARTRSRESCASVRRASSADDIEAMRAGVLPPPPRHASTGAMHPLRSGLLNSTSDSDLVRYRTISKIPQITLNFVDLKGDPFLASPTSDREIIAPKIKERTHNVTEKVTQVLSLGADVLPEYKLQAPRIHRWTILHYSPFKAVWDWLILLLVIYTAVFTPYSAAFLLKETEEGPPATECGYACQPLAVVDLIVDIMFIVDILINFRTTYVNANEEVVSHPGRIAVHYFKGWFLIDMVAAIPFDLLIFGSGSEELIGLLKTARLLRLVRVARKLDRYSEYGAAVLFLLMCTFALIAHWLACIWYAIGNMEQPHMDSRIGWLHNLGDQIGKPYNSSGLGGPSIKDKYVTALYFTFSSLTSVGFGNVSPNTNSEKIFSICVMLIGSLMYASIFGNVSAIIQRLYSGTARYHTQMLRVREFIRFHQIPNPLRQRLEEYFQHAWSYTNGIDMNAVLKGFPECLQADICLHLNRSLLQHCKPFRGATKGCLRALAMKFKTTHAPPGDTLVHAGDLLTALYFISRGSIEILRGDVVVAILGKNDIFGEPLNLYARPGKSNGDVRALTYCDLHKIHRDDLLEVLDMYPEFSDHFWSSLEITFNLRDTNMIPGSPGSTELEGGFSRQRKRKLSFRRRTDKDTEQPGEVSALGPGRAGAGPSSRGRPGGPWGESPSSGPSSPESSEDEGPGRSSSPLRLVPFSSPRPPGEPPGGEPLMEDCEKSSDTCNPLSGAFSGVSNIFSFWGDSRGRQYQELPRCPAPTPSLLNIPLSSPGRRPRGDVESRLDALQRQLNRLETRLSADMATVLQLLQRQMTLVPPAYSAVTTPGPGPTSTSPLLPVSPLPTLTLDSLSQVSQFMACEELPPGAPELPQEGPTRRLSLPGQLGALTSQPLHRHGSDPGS
- assayExplanation: primary screen, population patch clamp on CHO cells stably expressing hERG; higher = less effect of the substance;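 note: peak tail current of the secondary pulse compared with the same well before compound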
Out of some 310,000 compounds screened, about 14,000 (4.5%) showed an effect of 50% or more. The effect is printed as a negative number. The full list was thinned out, with strong results kept by preference.
quantityMeasured: hERG current change (%, negative = inhibition) at 10uM (%)
Quick note: give the figure in %, leave out the unit.

Qu. Would you kindly share the measured hERG current change (%, negative = inhibition) at 10uM for CCn1cc(CNC(=O)c2cc(-c3ccccc3OC)nc3ccccc23)c(C)n1 ?
Ans. -19.5

Qu. Same thing, different compound: Cc1c(C(=O)NCc2ccco2)oc2c(F)cccc12
Ans. 1.08

Qu. Same thing, different compound: O=[N+]([O-])c1ccc(CSc2nc3ccccc3[nH]2)cc1
Ans. -54.2

Qu. Same thing, different compound: Cc1ccc(S(=O)(=O)NNC(=O)C2COc3ccccc3O2)cc1C (centres unmarked)
Ans. 15.2

Qu. Same thing, different compound: O=C(NCCCl)Nc1cccnc1Cl
Ans. 12.2

Qu. Same thing, different compound: Cc1c(C(=O)NCc2ccccc2CN2CCCC2)oc2ccc(F)cc12
Ans. -74

Qu. Same thing, different compound: Cc1cccnc1NCC(O)COc1ccccc1 (centres unmarked)
Ans. -37.5

Qu. Same thing, different compound: COc1ccc(OC)c(-c2cc(C(=O)N/N=C(\C)c3cccnc3)c3ccccc3n2)c1
Ans. -65.5
